Tested on: Staphylococcus aureus
Experiment: Antimicrobial activity against methicillin-susceptible Staphylococcus aureus ATCC 3556 after 24 hrs by broth microdilution assay
Type: functional
Conditions: Staphylococcus aureus, ATCC 3556, 24 h; read-out: MIC
Recorded MIC, one value per entry.
The answer is to be given in µg/mL; state only the numeric part.

Worked examples follow.
- CCCC/C=C/C(=O)N[C@@H](Cc1cccc(F)c1)C(=O)N[C@@H]1COC(=O)[C@@H]2CCCN2C(=O)[C@H](C)NC(=O)C2(CCC2)N(C)C(=O)[C@@H]2CCCN2C1=O: 312
- CCCC/C=C/C(=O)N[C@@H](Cc1cccc(F)c1)C(=O)N[C@@H]1COC(=O)[C@@H]2CCCN2C(=O)[C@H](C)NC(=O)[C@@H]2CCCCN2C(=O)[C@@H]2CCCN2C1=O: 1.25

We next turn to a different compound, shown below.
Ask | // fetch MIC; item: CCCC/C=C/C(=O)N[C@@H](Cc1cccc(F)c1)C(=O)N[C@@H]1COC(=O)[C@@H]2CCCN2C(=O)[C@H](C)NC(=O)[C@@H]2CC(C)CCN2C(=O)[C@@H]2CCCN2C1=O (stereo not given in full) ; system: Staphylococcus aureus
Reply | 0.6
